# Setup conditions: in methanol, 333.15 K
Measure name: solubility (mole fraction)
Answers are plain numbers.

Qu. # solubility (mole fraction) lookup, item Nc1c([N+](=O)[O-])c2no[n+]([O-])c2c2no[n+]([O-])c12
Ans. 0.000121

* * *

# Setup conditions: in cyclohexanone, 333.15 K
Measure name: solubility (mole fraction)
One number for each entry.

Qu. Which solubility (mole fraction) reading was recorded for the molecule Nc1c([N+](=O)[O-])c2no[n+]([O-])c2c2no[n+]([O-])c12 ?
Ans. 0.00457

* * *

# Setup conditions: in DMF, 323.15 K
Measure name: solubility (mole fraction)

Qu. Query (compound): Nc1c([N+](=O)[O-])c2no[n+]([O-])c2c2no[n+]([O-])c12 ; field requested: solubility (mole fraction)
Ans. 0.0204
